The compounds listed here are annotated with their TGI.
# Tested on: SF-295 CNS
# assay: NCI tumour cell line growth inhibition, 48 h
Write the answer as a number in µM, unit excluded.

{"compound": "CC1(C)OCC(CO)(Nc2nc(N3CC3)nc(N3CC3)n2)CO1", "system_name": "SF-295 CNS", "reported_metric": "TGI", "observed": 20.3}
{"compound": "CC[N+](CC)(CC)CCCn1c2c(c3ccccc3c1=O)C(=O)c1ccccc1-2", "system_name": "SF-295 CNS", "reported_metric": "TGI", "observed": 57.9}
{"compound": "CN(C)CCO/N=C1/C=C2CC[C@H]3[C@@H]4CC[C@H](O)[C@@]4(C)CC[C@@H]3[C@@]2(C)CC1", "system_name": "SF-295 CNS", "reported_metric": "TGI", "observed": 32.4}
{"compound": "O=[N+]([O-])C(=C(N1CCOCC1)N1CCOCC1)/C(Cl)=C(\\Cl)[N+](=O)[O-]", "system_name": "SF-295 CNS", "reported_metric": "TGI", "observed": 36.4}

**Query** Output measured TGI for this item: `CN(C)CCNc1ccc2c(=O)n(CCN(C)C)c(=O)n3c4ccc(N)cc4c(=O)c1c23`
**Result** 1.07

**Query** Output measured TGI for this item: `CCN(CC)Cc1cc(Nc2c3ccccc3nc3c2[nH]c2ccccc23)ccc1O`
**Result** 2.83

**Query** Output measured TGI for this item: `O=S(=O)(c1ccc(I)cc1)N(c1ccccc1)S(=O)(=O)C(F)(F)C(F)(F)C(F)(F)C(F)(F)F`
**Result** 71.8

**Query** Output measured TGI for this item: OC1CC(O)c2c(Cl)sc(Cl)c21 (configuration not stated)
**Result** 87.3

**Query** Output measured TGI for this item: `S=C1N(c2ccc(Cl)cc2)C2=C(N=Nc3ccccc3)C(=Nc3ccccc3S2)N1c1ccccn1`
**Result** 32.3

**Query** Output measured TGI for this item: `C=C1CC[C@@H]2C(C)(C)CCC[C@@]2(C)[C@@H]1Cc1cc(O)ccc1O`
**Result** 28.2

**Query** Output measured TGI for this item: CC(C)CC1c2[nH]c3ccccc3c2C[C@H]2C(=O)NC(CCC(=O)OC(C)(C)C)C(=O)N12 (some centres not stated)
**Result** 41.1

* * *

The molecules listed here are annotated with their TGI.
# Tested on: OVCAR-5 ovarian
# assay: NCI tumour cell line growth inhibition, 48 h

**Query** Output measured TGI for this item: O=C(C(Br)Br)C(Br)C(Br)c1ccccc1 (stereo unspecified)
**Result** 22.2 µM

* * *

The compounds listed here are annotated with their TGI.
# Tested on: M14 melanoma
# assay: NCI tumour cell line growth inhibition, 48 h

Solved cases below.
{"compound": "c1ccc(N=C2c3ccccc3C3=NCCCN32)cc1", "reported_metric": "TGI", "observed": "> 100 µM"}
{"compound": "O=C(/C=C/c1ccc(O)cc1)NCCc1ccc(O)cc1", "reported_metric": "TGI", "observed": "> 12.5 µM"}
{"compound": "C=CCOCn1ccc(=O)[nH]c1=O", "reported_metric": "TGI", "observed": "> 100 µM"}
{"compound": "Cc1ccc2c(N)c(C(=O)N[C@H]3CCc4cc(N5CC6CCC(C5)N6)ccc4C3)sc2n1", "reported_metric": "TGI", "observed": "1.82 µM"}
{"compound": "Cc1ccc(S(=O)(=O)N2CCCCN(S(=O)(=O)c3ccc(C)cc3)Cc3ccccc3OCCOCCOc3c4cccc3Cc3cccc5c3OCCOCCOc3ccccc3CN(S(=O)(=O)c3ccc(C)cc3)CCCN(S(=O)(=O)c3ccc(C)cc3)Cc3ccccc3OCCOCCOc3c(cccc3C4)Cc3cccc(c3OCCOCCOc3ccccc3C2)C5)cc1", "reported_metric": "TGI", "observed": "> 100 µM"}

Let's switch to this compound now.
**Query** Enter TGI (test system M14 melanoma) for `COc1ccc2ccc([Se]c3ccc4ccc(OC)cc4c3)cc2c1`
**Result** > 100 µM
